# TARGET_SYSTEM: recombinant SjTGR (Schistosoma japonicum)
# Sequence (B5THG7 1-596): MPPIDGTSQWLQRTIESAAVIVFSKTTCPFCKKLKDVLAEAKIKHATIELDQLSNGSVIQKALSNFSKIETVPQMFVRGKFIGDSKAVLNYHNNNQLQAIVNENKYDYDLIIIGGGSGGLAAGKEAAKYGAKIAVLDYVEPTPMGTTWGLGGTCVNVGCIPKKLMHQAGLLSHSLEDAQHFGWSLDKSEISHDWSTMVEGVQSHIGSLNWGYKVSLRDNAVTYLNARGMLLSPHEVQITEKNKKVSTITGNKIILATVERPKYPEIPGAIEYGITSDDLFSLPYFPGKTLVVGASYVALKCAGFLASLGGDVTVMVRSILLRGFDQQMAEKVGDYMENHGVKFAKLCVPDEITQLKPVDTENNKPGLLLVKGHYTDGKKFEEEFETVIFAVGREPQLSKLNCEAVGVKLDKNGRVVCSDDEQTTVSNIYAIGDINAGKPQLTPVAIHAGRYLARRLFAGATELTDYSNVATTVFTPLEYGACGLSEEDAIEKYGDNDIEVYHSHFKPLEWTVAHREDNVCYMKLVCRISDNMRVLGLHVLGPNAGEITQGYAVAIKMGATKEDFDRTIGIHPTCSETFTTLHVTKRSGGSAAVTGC
# METHOD_DESCRIPTION: Inhibition of TrxR activity of recombinant SjTGR (DTNB assay)
# Type: biochemical
# ASSAY_CONTEXT: 50 nM SjTGR, 1 mM NADPH, 15 min preincubation, DTNB reduction; read-out: IC50 of SjTGR
# Method: The purified recombinant SjTGR proteins were produced according to the method described by Song et al.. The inhibition of TrxR activity by the recombinant SjTGR was performed as reported by Rai et al.. […] The increase of absorbance at 412 nm was monitored during the first 2 min. […] 50 nM SjTGR and 1 mM NADPH were incubated with different concentrations of oxadiazole-2-oxides (2, 4, 6, 10, 20 μM) for 15 min at room temperature. […] The increase in absorbance at 412 nm was monitored during the first 2 min. […]
The entries below come with measured IC50 values attached.
PROPERTY_LABEL: IC50 (µM)

[
  {
    "COMPOUND": "N#Cc1c(-c2ccc(OCCBr)cc2)no[n+]1[O-]",
    "TARGET_SYSTEM": "recombinant SjTGR (Schistosoma japonicum)",
    "COMPARATOR": "=",
    "MEASURED_NUMBER": 21.7
  },
  {
    "COMPOUND": "N#Cc1c(-c2ccc(OCCCCBr)cc2)no[n+]1[O-]",
    "TARGET_SYSTEM": "recombinant SjTGR (Schistosoma japonicum)",
    "COMPARATOR": "=",
    "MEASURED_NUMBER": 15.5
  },
  {
    "COMPOUND": "N#Cc1c(-c2ccc(OCc3ccccc3)cc2)no[n+]1[O-]",
    "TARGET_SYSTEM": "recombinant SjTGR (Schistosoma japonicum)",
    "COMPARATOR": ">",
    "MEASURED_NUMBER": 20
  },
  {
    "COMPOUND": "N#Cc1c(-c2ccc(OCCCBr)cc2)no[n+]1[O-]",
    "TARGET_SYSTEM": "recombinant SjTGR (Schistosoma japonicum)",
    "COMPARATOR": "=",
    "MEASURED_NUMBER": 1.6
  },
  {
    "COMPOUND": "Cc1ccc(-c2no[n+]([O-])c2CO)cc1",
    "TARGET_SYSTEM": "recombinant SjTGR (Schistosoma japonicum)",
    "COMPARATOR": "=",
    "MEASURED_NUMBER": 1.7
  },
  {
    "COMPOUND": "N#Cc1c(-c2ccc(COc3cc(=O)oc4ccccc34)cc2)no[n+]1[O-]",
    "TARGET_SYSTEM": "recombinant SjTGR (Schistosoma japonicum)",
    "COMPARATOR": ">",
    "MEASURED_NUMBER": 20
  },
  {
    "COMPOUND": "COc1ccc(-c2no[n+]([O-])c2CO)cc1",
    "TARGET_SYSTEM": "recombinant SjTGR (Schistosoma japonicum)",
    "COMPARATOR": "=",
    "MEASURED_NUMBER": 2.7
  },
  {
    "COMPOUND": "Cc1ccc2cccc(OCc3ccc(-c4no[n+]([O-])c4C#N)cc3)c2n1",
    "TARGET_SYSTEM": "recombinant SjTGR (Schistosoma japonicum)",
    "COMPARATOR": ">",
    "MEASURED_NUMBER": 20
  }
]
